Assembled from different publications: IC50 for Receptor-type tyrosine-protein phosphatase C (Homo sapiens).
TARGET_OR_SYSTEM: Receptor-type tyrosine-protein phosphatase C (Homo sapiens)
Sequence (P08575 whole entry): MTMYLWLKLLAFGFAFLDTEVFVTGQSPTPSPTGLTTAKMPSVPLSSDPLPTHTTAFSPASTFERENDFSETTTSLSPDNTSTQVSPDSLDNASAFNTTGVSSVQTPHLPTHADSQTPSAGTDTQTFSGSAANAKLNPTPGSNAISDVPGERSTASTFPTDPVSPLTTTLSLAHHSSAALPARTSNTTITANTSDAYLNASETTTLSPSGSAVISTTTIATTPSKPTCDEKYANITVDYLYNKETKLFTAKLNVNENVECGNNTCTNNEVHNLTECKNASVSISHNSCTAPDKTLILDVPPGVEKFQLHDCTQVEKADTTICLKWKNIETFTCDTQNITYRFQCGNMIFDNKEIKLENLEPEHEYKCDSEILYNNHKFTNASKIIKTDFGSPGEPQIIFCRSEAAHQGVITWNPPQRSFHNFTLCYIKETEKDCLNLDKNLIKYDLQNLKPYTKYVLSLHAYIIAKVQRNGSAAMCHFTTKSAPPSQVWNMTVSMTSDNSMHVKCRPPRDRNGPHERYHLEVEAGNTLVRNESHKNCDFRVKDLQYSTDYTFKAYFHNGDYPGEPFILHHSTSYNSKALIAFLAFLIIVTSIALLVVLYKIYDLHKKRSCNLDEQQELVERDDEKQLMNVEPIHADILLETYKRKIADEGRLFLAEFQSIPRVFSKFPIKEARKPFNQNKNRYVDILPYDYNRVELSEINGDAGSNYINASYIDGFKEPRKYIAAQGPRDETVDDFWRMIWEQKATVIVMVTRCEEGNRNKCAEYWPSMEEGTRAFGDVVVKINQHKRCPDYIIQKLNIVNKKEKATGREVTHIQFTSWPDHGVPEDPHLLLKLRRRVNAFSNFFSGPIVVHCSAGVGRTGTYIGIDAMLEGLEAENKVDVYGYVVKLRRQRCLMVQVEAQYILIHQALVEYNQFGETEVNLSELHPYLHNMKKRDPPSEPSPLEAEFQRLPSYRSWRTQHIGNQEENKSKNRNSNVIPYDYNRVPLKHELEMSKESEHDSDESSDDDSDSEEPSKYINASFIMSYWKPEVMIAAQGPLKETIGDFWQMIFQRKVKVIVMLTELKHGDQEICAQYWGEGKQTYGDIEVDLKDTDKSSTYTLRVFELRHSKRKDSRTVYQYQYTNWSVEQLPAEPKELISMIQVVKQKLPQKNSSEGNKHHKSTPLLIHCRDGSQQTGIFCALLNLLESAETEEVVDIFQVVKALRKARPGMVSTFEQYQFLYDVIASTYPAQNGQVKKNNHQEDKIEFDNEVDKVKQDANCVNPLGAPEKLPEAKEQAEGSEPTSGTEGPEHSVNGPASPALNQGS

// worked examples, IC50 included
>>> recorded_result("COC(=O)C(Cc1ccc(C(F)(F)P(=O)(O)O)cc1)(Cc1ccc(C(F)(F)P(=O)(O)O)cc1)C(=O)OCc1ccccc1")
"> 50 µM"
>>> recorded_result("CS(=O)(=O)Cc1ccc2cc(Br)c(C(F)(F)P(=O)(O)O)cc2c1")
"> 50 µM"
>>> recorded_result("CC(=O)NS(=O)(=O)c1ccc(CC(Cc2ccc(C(F)(F)P(=O)(O)O)cc2)(C(=O)OCc2ccccc2)C(=O)OCc2ccccc2)cc1")
"25 µM"
>>> recorded_result("O=C(O)c1cccc(/C=C/c2ccc3cc(Br)c(C(F)(F)P(=O)(O)O)cc3n2)c1")
"37.8 µM"
>>> recorded_result("O=P(O)(O)C(F)(F)c1ccc(CCCCc2ccc(C(F)(F)P(=O)(O)O)cc2)cc1")
"198 µM"
>>> recorded_result("CC(=O)O[C@@H](C/C(C)=C/CCc1ccoc1)C[C@@H](C)CCCc1ccoc1")
"> 27 µM"
>>> recorded_result("COc1cc(/C=C2/NC(=O)N(Cc3ccc(C)cc3)C2=O)ccc1OCc1cccc(C(=O)O)c1")
"> 40 µM"

Challenge: Which IC50 reading was recorded for the compound O=P(O)(O)C(F)(F)c1ccc(CC(Cc2ccc(Br)cc2)(c2ccccc2)n2nnc3ccccc32)cc1 (stereo not drawn) ?
Response given: 17 µM

====

Dear all, I have gathered published IC50 values for Receptor-type tyrosine-protein phosphatase C (Homo sapiens); the list follows.

In the examples that follow, each entry is paired with its recorded IC50.
>>> recorded_result("C/C(=C\\CCc1ccoc1)C[C@H](O)C[C@@H](C)CCCc1ccoc1")
"> 30 µM"
>>> recorded_result("CC(C)OC(=O)c1cc(CC(Cc2ccc(C(F)(F)P(=O)(O)O)cc2)(C(=O)c2ccccc2)c2ccccc2)ccc1C(F)(F)P(=O)(O)O (stereo not given)")
"> 50 µM"
>>> recorded_result("O=C(c1ccccc1)C(Cc1ccc(C(F)(F)P(=O)(O)O)c(Br)c1)c1ccccc1 (stereo not given)")
"> 50 µM"

Challenge: Request body: readout IC50, system Receptor-type tyrosine-protein phosphatase C (Homo sapiens), query O=C(Nc1ccc(OCc2ccccc2)c(Cl)c1)C(c1ccccc1)S(=O)(=O)O (stereo not given) . Return the value.
Response given: > 200 µM

Challenge: Which IC50 is reported with Receptor-type tyrosine-protein phosphatase C (Homo sapiens) for this entry: `CS(=O)(=O)c1ccc(CC(Cc2ccc(C(F)(F)P(=O)(O)O)cc2)(C(=O)OCc2ccccc2)C(=O)OCc2ccccc2)cc1` ?
Response given: > 50 µM

Challenge: Hi! What's the reported IC50 for `O=P(O)(O)C(F)(F)c1cc2nc(/C=C/c3ccccc3)ccc2cc1Br` on Receptor-type tyrosine-protein phosphatase C (Homo sapiens)?
Response given: > 50 µM

Challenge: Param readout= IC50; system= Receptor-type tyrosine-protein phosphatase C (Homo sapiens); entry= `N#Cc1ccc2cc(Br)c(C(F)(F)P(=O)(O)O)cc2c1` ; returns value.
Response given: > 50 µM

Challenge: # get_value(readout= IC50, system= Receptor-type tyrosine-protein phosphatase C (Homo sapiens)) for `N#Cc1ccc2cc(C(F)(F)P(=O)(O)O)c(Br)cc2c1`
Response given: > 50 µM

Challenge: Please provide the recorded IC50 for COc1c(C=O)c2c(c3c1CC(C)(C)C3)C(=O)OC(O)C2 (stereo not given) , tested on Receptor-type tyrosine-protein phosphatase C (Homo sapiens).
Response given: > 100 µM

Challenge: Checklist item: IC50 tested on Receptor-type tyrosine-protein phosphatase C (Homo sapiens), entry `Cc1ccc2cc(Br)c(C(F)(F)P(=O)(O)O)cc2c1` , value?
Response given: > 50 µM

====

Several publications report pIC50 on Receptor-type tyrosine-protein phosphatase C (Homo sapiens, UniProt P08575); those values are gathered here.
pIC50 (log units): -log10 of the concentration in mol/L.

Answered cases to consult:
>>> recorded_result("Cc1ccc2cc(-c3ccc(CC(Cc4ccc(C(F)(F)P(=O)(O)O)cc4)(c4ccccc4)n4nnc5ccccc54)cc3)cc(P(=O)(O)O)c2n1 (centres undefined)")
4.30
>>> recorded_result("O=P(O)(O)c1cccc(-c2ccc(CC(Cc3ccc(C(F)(F)P(=O)(O)O)cc3)(c3ccccc3)n3nnc4ccccc43)cc2)c1 (centres undefined)")
4.30
>>> recorded_result("CSc1ccnc(C[S+]([O-])c2nc3cc(OC(C)C)ccc3[nH]2)c1 (centres undefined)")
6.55

Challenge: Can you look up the measured pIC50 of `CCCOc1c2cccc1Cc1cc(C(P(=O)(O)O)P(=O)(O)O)cc(c1O)Cc1cccc(c1OCCC)Cc1cc(C(P(=O)(O)O)P(=O)(O)O)cc(c1O)C2` for me?
Response given: 4.66

Challenge: Report pIC50 for `CCOC(=O)c1c(-c2ccc(-c3ccc(F)c(Cl)c3)cc2)csc1NC(=O)c1ccccc1C(=O)O` please.
Response given: 5.17

Challenge: Can you share its pIC50? I mean this compound: `O=P(O)(O)C(F)(F)c1ccc(COc2cccc(OCc3ccc(C(F)(F)P(=O)(O)O)cc3)c2)cc1`
Response given: 3.97

Challenge: What pIC50 value was documented for this compound, `O=P(O)(O)C(F)(F)c1ccc(CC(Cc2ccc(C(F)(F)P(=O)(O)O)cc2)(c2nc3ccccc3s2)n2nnc3ccccc32)cc1` ?
Response given: 4.96

====

Compiled record: IC50 values for Receptor-type tyrosine-protein phosphatase C (Homo sapiens) across several sources.

>>> recorded_result("Cc1ccc2cc(Br)c(C(F)(F)P(=O)(O)O)cc2n1")
"> 50 µM"
>>> recorded_result("O=C(c1ccccc1)C(Cc1ccc(C(F)(F)P(=O)(O)O)cc1)(Cc1ccc(C(F)(F)P(=O)(O)O)cc1)c1ccccc1")
"> 50 µM"
>>> recorded_result("O=P(O)(O)C(F)(F)c1ccc(CC(c2ccccc2)n2nnc3ccccc32)cc1 (stereo unspecified)")
"> 50 µM"
>>> recorded_result("CC(C)CCCC(C)[C@H]1CC[C@H]2[C@@H]3CC(=O)O[C@](C)(CC/C=C\\C#N)[C@H]3CC[C@]12C (stereo partly specified)")
"> 100 µM"
>>> recorded_result("CSc1ccnc(CSc2nc3ccc(OC(C)C)cc3[nH]2)c1")
"> 1000 µM"

Challenge: I'd like to know its IC50. The compound in question is `CC(C)OC(=O)C(Cc1ccc(C(F)(F)P(=O)(O)O)cc1)(Cc1ccc(C(F)(F)P(=O)(O)O)cc1)C(=O)OC(C)C`
Response given: > 50 µM

Challenge: I'd like to know its IC50. The compound in question is `COC(=O)C(Cc1ccc(C(F)(F)P(=O)(O)O)cc1)(Cc1ccc(C(F)(F)P(=O)(O)O)cc1)C(=O)O`
Response given: > 50 µM

Challenge: Looking for the measured IC50 of `O=C(Nc1ccccc1)c1ccc2cc(Br)c(C(F)(F)P(=O)(O)O)cc2n1` , can you help?
Response given: > 50 µM

Challenge: Requested field: IC50. Item: `O=C(O)c1cc2c(C#Cc3ccc(F)cc3F)c(-c3ccccc3)oc2cc1O`
Response given: 5.5 µM

Challenge: # get_value(readout='IC50', item= O=C(c1ccccc1)C(Cc1ccc(C(F)(F)P(=O)(O)O)c(-c2ccccc2)c1)c1ccccc1 (stereo unspecified) )
Response given: > 50 µM

Challenge: Look up IC50 for this compound: `CC(=O)NCc1ccc2cc(Br)c(C(F)(F)P(=O)(O)O)cc2c1`
Response given: > 50 µM

Challenge: # query: IC50 of entry `CCOC(=O)CC(Cc1ccc(NS(=O)(=O)O)cc1)(C(=O)OC)C(=O)OC`
Response given: 126 µM

Challenge: Give the measured IC50 of O=P(O)(O)C(F)(F)c1ccc(/C=C/CC(Cc2ccc(C(F)(F)P(=O)(O)O)cc2)(c2ccccc2)n2nnc3ccccc32)cc1 (stereo unspecified) .
Response given: 50 µM

Challenge: Which measured IC50 value corresponds to `CCCCCCCCCCCCCCCc1cc(O[C@@H]2O[C@H](CO)[C@@H](O)[C@H](O)[C@H]2O)cc(O)c1C(=O)Oc1cc(C)c(C(=O)O)c(O)c1` ?
Response given: > 44 µM

Challenge: Give the measured IC50 of `CNC(=O)[C@@H]1Cc2ccc(NS(=O)(=O)O)cc2CN1C(=O)CCc1cccc(NS(=O)(=O)O)c1` .
Response given: > 500 µM

Challenge: Entry under review: `O=C(NCc1ccccc1)c1ccc2cc(Br)c(C(F)(F)P(=O)(O)O)cc2n1` . Reported IC50?
Response given: > 50 µM
